Reported values of self-cleavage for individual entries
B1: CPEB3 Ribozyme (parent)
chain: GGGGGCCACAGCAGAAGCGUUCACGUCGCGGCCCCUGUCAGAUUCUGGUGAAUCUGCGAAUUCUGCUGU

variants of: B1; assay: self-cleavage, relative activity (ratio to wild type); higher = more cleavage; co-transcriptional
Respond with the number and no other words.

G4C A23G = 0.349
C57G U67A = 0.325
C33A C35U = 0.442
C63G G68U = 0.584
A13C C18U = 0.262
C33G C57G = 0.259

Report self-cleavage for C7U G56U please.
0.849
